molecular target: human hNET (Homo sapiens, UniProt P23975); construct: expressed in transfected cells; host or cells: MDCK-Net6 (MDCK cells stably transfected with hNET); assay: Functional norepinephrine reuptake assay, Procedure B (6,000 cells/well); type: cell-based; conditions: MDCK-Net6 cells, 6,000 cells/well, 16 nM 3H-norepinephrine; read-out: Procedure B hNET uptake IC50
Sequence (P23975 whole entry): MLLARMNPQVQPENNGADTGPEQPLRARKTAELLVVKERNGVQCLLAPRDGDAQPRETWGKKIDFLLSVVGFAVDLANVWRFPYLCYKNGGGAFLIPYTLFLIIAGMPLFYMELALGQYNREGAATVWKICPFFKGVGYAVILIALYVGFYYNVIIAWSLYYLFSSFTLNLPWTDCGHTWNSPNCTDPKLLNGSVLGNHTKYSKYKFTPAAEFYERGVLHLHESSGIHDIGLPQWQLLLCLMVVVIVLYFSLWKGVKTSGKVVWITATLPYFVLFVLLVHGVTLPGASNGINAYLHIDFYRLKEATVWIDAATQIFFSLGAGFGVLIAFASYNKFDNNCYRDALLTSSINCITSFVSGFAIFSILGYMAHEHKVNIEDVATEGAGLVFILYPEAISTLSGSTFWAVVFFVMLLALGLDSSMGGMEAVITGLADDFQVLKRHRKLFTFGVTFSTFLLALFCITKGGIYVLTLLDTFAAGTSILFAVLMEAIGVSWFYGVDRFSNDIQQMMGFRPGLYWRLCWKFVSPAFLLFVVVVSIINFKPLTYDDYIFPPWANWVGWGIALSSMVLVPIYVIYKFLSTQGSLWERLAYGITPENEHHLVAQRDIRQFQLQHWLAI
pIC50: −log10 of the molar value.
Decision: pIC50 compared against 7; not below it gives 1, below it gives 0.

Reference set (5 entries):
>  <Compound>
CNCC[C@@H]1Oc2cc(F)ccc2N(c2ccccc2)S1(=O)=O (single isomer, unassigned)

>  <Class Name>
0

$$$$
>  <Compound>
NCCNCC1Oc2ccccc2N(c2ccccc2)S1(=O)=O (centres unmarked)

>  <Class Name>
0

$$$$
>  <Compound>
CNCCC[C@@H]1Cc2cc(F)ccc2N(c2ccc(F)cc2C)S1(=O)=O (single isomer, unassigned)

>  <Class Name>
0

$$$$
>  <Compound>
CNCCN(C)CC1Oc2ccccc2N(c2ccccc2)S1(=O)=O (centres unmarked)

>  <Class Name>
0

$$$$
>  <Compound>
CNCCCC1Oc2ccccc2N(c2ccc(C)cc2)S1(=O)=O (centres unmarked)

>  <Class Name>
1

$$$$

### Prompt Has CNCCCC1Cc2cc(F)ccc2N(c2c(F)cccc2F)S1(=O)=O (racemic) a recorded pIC50 greater than or equal to 7?
### Response 1

###

target: human hNET (Homo sapiens, UniProt P23975); construct: expressed in transfected cells; host or cells: MDCK-Net6 (MDCK cells stably transfected with hNET); test: Functional norepinephrine reuptake assay, Procedure B (6,000 cells/well); format: cell-based; settings: MDCK-Net6 cells, 6,000 cells/well; Conc 6000 nM (6 μM); read-out: Procedure B hNET uptake (% inhibition)
Counter-ions that a name gives are not always drawn.
Decision: inhibition at 6 µM compared against 40%; not below it gives T, below it gives F.

>  <Molecule>
CN1CCN(CC2Oc3ccccc3N(c3ccccc3)S2(=O)=O)CC1 (centres unmarked)

>  <Class Name>
F

$$$$
>  <Molecule>
CNCCCC1Sc2ccccc2N(c2ccc(OC)cc2)S1(=O)=O (centres unmarked) [Example 65, hydrochloride]

>  <Class Name>
T

$$$$
>  <Molecule>
CC(C)N(C)CCCC1Oc2ccccc2N(c2ccccc2)S1(=O)=O (centres unmarked) [Example 84, Hydrochloride]

>  <Class Name>
F

$$$$
>  <Molecule>
CCCCNCCCC1Oc2ccccc2N(c2ccccc2)S1(=O)=O (centres unmarked)

>  <Class Name>
T

$$$$
>  <Molecule>
O=S1(=O)C(CCNC2CCC2)Oc2ccccc2N1c1ccccc1 (centres unmarked)

>  <Class Name>
T

$$$$

### Prompt Has CCN(C)CCCC1Oc2ccccc2N(c2ccccc2)S1(=O)=O (centres unmarked) [Example 81, hydrochloride] a recorded inhibition at 6 µM greater than or equal to 40%?
### Response F

### Prompt Has CN(CCCC1Oc2ccccc2N(c2ccccc2)S1(=O)=O)C1CCCCC1 (centres unmarked) [Example 85, Hydrochloride] a recorded inhibition at 6 µM greater than or equal to 40%?
### Response T

### Prompt Has O=S1(=O)C(CCN2CCCCC2)Oc2ccccc2N1c1ccccc1 (centres unmarked) [Example 78, hydrochloride] a recorded inhibition at 6 µM greater than or equal to 40%?
### Response T
